Tested on: human Nav1.7 (Homo sapiens, UniProt Q15858)
Construct: expressed in transfected cells; host or cells: HEK293
Sequence (Q15858 whole entry): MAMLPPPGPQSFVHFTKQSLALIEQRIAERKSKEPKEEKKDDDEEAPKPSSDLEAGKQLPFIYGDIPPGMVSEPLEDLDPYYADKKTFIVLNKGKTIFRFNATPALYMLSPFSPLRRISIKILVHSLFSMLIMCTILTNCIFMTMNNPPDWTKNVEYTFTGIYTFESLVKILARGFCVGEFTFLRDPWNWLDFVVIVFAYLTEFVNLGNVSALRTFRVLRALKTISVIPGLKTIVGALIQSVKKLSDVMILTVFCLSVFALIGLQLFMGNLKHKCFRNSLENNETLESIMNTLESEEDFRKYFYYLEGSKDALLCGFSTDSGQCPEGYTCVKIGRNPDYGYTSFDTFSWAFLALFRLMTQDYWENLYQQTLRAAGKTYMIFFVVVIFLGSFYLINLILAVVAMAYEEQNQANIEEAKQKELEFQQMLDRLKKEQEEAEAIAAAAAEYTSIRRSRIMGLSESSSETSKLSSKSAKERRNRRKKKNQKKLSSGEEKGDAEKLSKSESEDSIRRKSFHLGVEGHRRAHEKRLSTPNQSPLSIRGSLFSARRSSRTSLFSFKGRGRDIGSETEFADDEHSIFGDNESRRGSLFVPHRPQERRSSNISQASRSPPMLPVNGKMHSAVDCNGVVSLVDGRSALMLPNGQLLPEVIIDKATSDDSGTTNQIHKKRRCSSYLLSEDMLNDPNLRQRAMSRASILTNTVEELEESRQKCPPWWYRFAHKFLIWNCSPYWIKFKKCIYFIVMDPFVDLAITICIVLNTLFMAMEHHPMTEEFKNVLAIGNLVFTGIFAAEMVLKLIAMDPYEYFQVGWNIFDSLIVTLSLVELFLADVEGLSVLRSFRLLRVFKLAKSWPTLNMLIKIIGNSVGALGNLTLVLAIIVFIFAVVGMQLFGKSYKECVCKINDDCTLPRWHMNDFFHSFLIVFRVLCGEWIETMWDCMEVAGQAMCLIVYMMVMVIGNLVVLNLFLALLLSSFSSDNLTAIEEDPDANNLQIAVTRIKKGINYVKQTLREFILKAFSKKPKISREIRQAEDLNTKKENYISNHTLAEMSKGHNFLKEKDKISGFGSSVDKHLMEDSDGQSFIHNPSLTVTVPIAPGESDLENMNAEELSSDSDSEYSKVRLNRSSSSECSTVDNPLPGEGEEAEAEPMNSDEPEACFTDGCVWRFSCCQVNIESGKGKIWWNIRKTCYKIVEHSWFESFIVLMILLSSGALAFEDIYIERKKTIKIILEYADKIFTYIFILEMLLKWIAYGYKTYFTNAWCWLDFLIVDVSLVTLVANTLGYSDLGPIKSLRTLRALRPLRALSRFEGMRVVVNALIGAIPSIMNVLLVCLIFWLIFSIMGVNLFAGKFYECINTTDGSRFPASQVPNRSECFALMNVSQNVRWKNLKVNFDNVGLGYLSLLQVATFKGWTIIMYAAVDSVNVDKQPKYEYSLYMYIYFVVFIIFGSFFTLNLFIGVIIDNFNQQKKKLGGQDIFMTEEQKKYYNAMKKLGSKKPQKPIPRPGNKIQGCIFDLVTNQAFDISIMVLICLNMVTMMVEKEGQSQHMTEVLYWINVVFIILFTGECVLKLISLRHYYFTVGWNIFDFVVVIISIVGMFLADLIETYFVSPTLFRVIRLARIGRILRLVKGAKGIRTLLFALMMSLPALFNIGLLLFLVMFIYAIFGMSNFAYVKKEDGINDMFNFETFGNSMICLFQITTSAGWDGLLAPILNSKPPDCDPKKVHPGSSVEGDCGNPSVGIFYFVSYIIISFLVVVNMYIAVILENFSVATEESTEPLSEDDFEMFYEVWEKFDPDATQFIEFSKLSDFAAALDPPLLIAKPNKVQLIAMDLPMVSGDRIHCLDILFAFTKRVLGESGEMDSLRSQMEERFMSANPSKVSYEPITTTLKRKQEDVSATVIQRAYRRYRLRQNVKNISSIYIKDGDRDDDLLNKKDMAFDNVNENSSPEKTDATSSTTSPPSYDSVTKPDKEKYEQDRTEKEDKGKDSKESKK
Procedure summary: Nav 1.7 IWQ In Vitro Assay (IonWorks Quattro)
Type: cell-based
Experimental context: HEK293 cells stably transfected with human Nav 1.7; IonWorks Quattro population patch-clamp; 26th pulse to −20 mV, 5 Hz; cells unclamped 5 to 8 minutes with compound; read-out: hNav1.7 IWQ IC50
Response field label takes label 1 when IC50 is strictly below 20 nM and label 0 in all other cases.

Record excerpt, results attached:
INPUT: Does the reported IC50 of the following molecule sit strictly below 20 nM? COc1cc(-c2cccc(C(F)(F)F)c2)c(F)cc1-n1c2c(ccc1=O)CN(S(=O)(=O)Nc1ccon1)CC2 (racemic) [Example 16-(Rac)]
OUTPUT: label 1

INPUT: Is the reported IC50 for COc1cc(CCC(F)(F)F)c(F)cc1-n1c2c(ccc1=O)CN(S(=O)(=O)Nc1ccon1)CC2 strictly below 20 nM?
OUTPUT: label 1

INPUT: Lab note: confirm whether the reported IC50 for this molecule is below 20 nM, equality not counting. molecule: COc1cc(-c2ccc(Cl)c(C)c2)c(F)cc1-n1c2c(ccc1=O)CN(S(=O)(=O)Nc1nccs1)CC2 (racemic)
OUTPUT: label 1

INPUT: Would you kindly verify if IC50 of COc1cc(-c2cc(F)cc(Cl)c2)c(F)cc1-n1c2c(ccc1=O)CN(S(=O)(=O)Nc1cccc(F)n1)CC2 (single isomer, unassigned) [Example 13-P] is strictly less than 20 nM?
OUTPUT: label 0

INPUT: Given the entry COc1cc(-c2cc(OC)c(-n3c4c(ccc3=O)CN(S(=O)(=O)Nc3ccon3)CC4)cc2F)ccc1C (single isomer, unassigned) [Example 58-P] , would its reported IC50 be below 20 nM?
OUTPUT: label 1

INPUT: Consider COc1cc(-c2cc(F)cc(Cl)c2)c(F)cc1-n1c2c(ccc1=O)CN(S(=O)(=O)Nc1ccccn1)CC2 (single isomer, unassigned) . Does its IC50 lie strictly below 20 nM?
OUTPUT: label 0

More entries:
INPUT: Report whether reported IC50 is lower than 20 nM (strictly) for COc1cc(-c2cc(F)cc(F)c2)c(F)cc1-n1c2c(ccc1=O)CN(S(=O)(=O)Nc1ccon1)CC2 (single isomer, unassigned)
OUTPUT: label 1

INPUT: Check if IC50 falls below 20 nM for COc1cc(C#CC2CCCC2)c(F)cc1-n1c2c(ccc1=O)CN(S(=O)(=O)Nc1ccon1)CC2 (single isomer, unassigned) [Example 34-P] .
OUTPUT: label 1

INPUT: Dear reviewer, please state whether COc1cc(-c2ccc(F)c(C(F)F)c2)c(F)cc1-n1c2c(ccc1=O)CN(S(=O)(=O)Nc1cccnn1)CC2 has IC50 strictly beneath 20 nM.
OUTPUT: label 1

INPUT: Lab log: compare recorded IC50 with 20 nM; is it strictly lower for COc1cc(-c2cc(F)cc(Cl)c2)c(F)cc1-n1c2c(ccc1=O)CN(S(=O)(=O)Nc1cccc(F)n1)CC2 (racemic) [Example 13-(Rac)] ?
OUTPUT: label 0

INPUT: # TODO verify IC50 < 20 nM strictly for this molecule: COc1cc(-c2ccc(Cl)c(C)c2)c(F)cc1-n1c2c(ccc1=O)CN(S(=O)(=O)Nc1ccon1)CC2 (single isomer, unassigned) [Example 24-P]
OUTPUT: label 1

====

Tested on: human Nav1.7 (Homo sapiens, UniProt Q15858)
Construct: expressed in transfected cells; host or cells: HEK293
Procedure summary: Nav 1.7 In Vitro PatchXpress (PX) Assay
Format: cell-based
Experimental context: HEK 293 cells stably transfected with human Nav1.7; PatchXpress whole cell voltage clamp; partially inactivated state (holding potential yielding 20 to 50% inactivation); read-out: hNav1.7 PX IC50
Reported metric: IC50 (nM)
Please reply with the bare figure in nM and do not write the unit itself.

Completed entries (count: 2):
INPUT: Please report the recorded IC50 for COc1cc(-c2cc(F)cc(F)c2)c(F)cc1-n1c2c(ccc1=O)CN(S(=O)(=O)Nc1cccc(F)n1)CC2 (racemic) [Example 14-(Rac)] .
OUTPUT: 74.2

INPUT: Data request, read-out IC50, for COc1cc(-c2cccc(OC(F)F)c2)c(F)cc1-n1c2c(ccc1=O)CN(S(=O)(=O)Nc1ccon1)CC2 (single isomer, unassigned) [Example 19-M]
OUTPUT: 17100

With those in mind, consider the next molecule.
INPUT: Would you kindly share the measured IC50 for COc1cc(-c2cc(F)cc(Cl)c2)c(F)cc1-n1c2c(ccc1=O)CN(S(=O)(=O)Nc1ccccn1)CC2 (single isomer, unassigned) [Example 11-P] ?
OUTPUT: 166

====

Reported IC50 values follow for various compounds
Tested on: human Nav1.7 (Homo sapiens)
Construct: expressed in transfected cells; host or cells: HEK293
Procedure summary: Nav 1.7 In Vitro PatchXpress (PX) Assay
Type: cell-based
Experimental context: HEK 293 cells stably transfected with human Nav1.7; PatchXpress whole cell voltage clamp; partially inactivated state (holding potential yielding 20 to 50% inactivation); read-out: hNav1.7 PX IC50
Only the number, expressed in µM, is required.

Use the examples below as a reference point.
INPUT: Consider the compound COc1cc(-c2cc(F)cc(F)c2)c(F)cc1-n1c2c(ccc1=O)CN(S(=O)(=O)Nc1ccon1)[C@H](C)C2 [Example 3-D-P] and give its measured IC50.
OUTPUT: 0.23

INPUT: Look at this compound and give its reported IC50. COc1cc(-c2cc(F)cc(F)c2)c(F)cc1-n1c2c(ccc1=O)CN(S(=O)(=O)Nc1ccon1)CC2 (single isomer, unassigned) [Example 25-P]
OUTPUT: 0.176

Now for another entry.
INPUT: Using the record for COc1cc(-c2ccc(F)c(C)c2)c(F)cc1-n1c2c(ccc1=O)CN(S(=O)(=O)Nc1cccnn1)CC2 , report its IC50.
OUTPUT: 0.232

====

Tested on: human Nav1.7 (Homo sapiens)
Construct: expressed in transfected cells; host or cells: HEK293
Procedure summary: Nav 1.7 IWB In Vitro Assay (IonWorks Barracuda)
Format: cell-based
Experimental context: HEK293 cells stably transfected with human Nav 1.7; IonWorks Barracuda population patch-clamp; cells clamped to −20 mV for 4 minutes with compound; 26th pulse; read-out: hNav1.7 IWB IC50
Reported metric: IC50 (nM)
Report the value in nM with no unit label.

INPUT: What measured IC50 is associated with COc1cc(-c2ccc(Cl)c(C)c2)c(F)cc1-n1c2c(ccc1=O)CN(S(=O)(=O)Nc1ncccn1)CC2 (single isomer, unassigned) [Example 30-P] on human Nav1.7 (Homo sapiens)?
OUTPUT: 37.5

INPUT: Can you look up IC50 on human Nav1.7 (Homo sapiens) for COc1cc(-c2ccc(F)c(C(F)(F)F)c2)c(F)cc1-n1c2c(ccc1=O)CN(S(=O)(=O)Nc1cccnn1)CC2 [Example 71] ?
OUTPUT: 6.9

INPUT: Hello, I am looking for reported IC50 with human Nav1.7 (Homo sapiens) for COc1cc(-c2cc(F)cc(Cl)c2)c(F)cc1-n1c2c(ccc1=O)CN(S(=O)(=O)Nc1cc(C)ncn1)CC2 (racemic) [4-(Rac)] . Could you help?
OUTPUT: 45.9

New cases:
INPUT: Lab note: need IC50 with human Nav1.7 (Homo sapiens) for entry COc1cc(-c2cc(F)cc(Cl)c2)c(F)cc1-n1c2c(ccc1=O)CN(S(=O)(=O)Nc1cccnn1)CC2 (single isomer, unassigned) [Example 38-P] , please look it up.
OUTPUT: 10.9

INPUT: # value lookup — system human Nav1.7 (Homo sapiens), readout IC50, item COc1cc(-c2ccc(F)c(C)c2)c(Cl)cc1-n1c2c(ccc1=O)CN(S(=O)(=O)Nc1cccnn1)CC2 (single isomer, unassigned) [Example 92-P]
OUTPUT: 5.9

INPUT: State its IC50 on human Nav1.7 (Homo sapiens): COc1cc(CCC(F)(F)F)c(F)cc1-n1c2c(ccc1=O)CN(S(=O)(=O)Nc1cccnn1)CC2 [Example 95]
OUTPUT: 36.5

====

Tested on: human Nav1.7 (Homo sapiens)
Construct: expressed in transfected cells; host or cells: HEK293
Procedure summary: Nav 1.7 In Vitro PatchXpress (PX) Assay
Format: cell-based
Experimental context: HEK 293 cells stably transfected with human Nav1.7; PatchXpress whole cell voltage clamp; partially inactivated state (holding potential yielding 20 to 50% inactivation); read-out: hNav1.7 PX IC50
Catalogue of pIC50 readings, one per entry.
To interpret pIC50, take it as minus log10 of a concentration measured in moles per litre.

INPUT: What value of measured pIC50 is listed for COc1cc(-c2ccc(Cl)c(C)c2)c(F)cc1-n1c2c(ccc1=O)CN(S(=O)(=O)Nc1ncccn1)CC2 (single isomer, unassigned) [Example 30-P] ?
OUTPUT: 6.71

INPUT: Can you share its pIC50? I mean this compound: COc1cc(-c2cc(C(F)(F)F)cnc2OC)c(F)cc1-n1c2c(ccc1=O)CN(S(=O)(=O)Nc1cccnn1)CC2
OUTPUT: 7.18

INPUT: Record request: pIC50 value, item COc1cc(-c2ccc(F)c(C)c2)c(F)cc1-n1c2c(ccc1=O)CN(S(=O)(=O)Nc1ccon1)CC2 (single isomer, unassigned) [Example 22-P]
OUTPUT: 6.97

More entries:
INPUT: Need pIC50 of COc1cc(-c2cc(F)cc(Cl)c2)c(F)cc1-n1c2c(ccc1=O)CN(S(=O)(=O)Nc1cccnn1)CC2 (single isomer, unassigned) [Example 38-P] , thanks.
OUTPUT: 7.25

INPUT: I'd like to know its pIC50. The compound in question is COc1cc(-c2ccc(Cl)c(F)c2)c(F)cc1-n1c2c(ccc1=O)CN(S(=O)(=O)Nc1cccnn1)CC2
OUTPUT: 7.02
